# assay-system: SARS-CoV spike protein receptor binding domain (RBD1) (SARS-CoV, UniProt P59594 306-527)
# protocol-summary: ELISA, crude rabbit minibody
measured-property: binding result

>>> meas_value("E08 rabbit minibody (scFv-rabbit Fc) (Fc fusion) scFv-Fc: SYVLTQPPSVSVAPGKTARITCGGNNIGWKSVHWYQQKPGQAPVLVVYDDSDRPSGIPERFSGSNSGNTATLTISRVEAGDEADYYCQVWDSSSDLVVFGGGTKLTVLSGGSTITSYNVYYTKLSSSGTQVQLVQSGAEVKKPGSSVKVSCKASGGTFSSYAISWVRQAPGQGLEWMGGIIPIFGTANYAQKFQGRVTITADESTSTAYMELSSLRSEDTAVYYCARASGRWLQFWHYYGMDVWGQGTTVTVSS")
"binds"
>>> meas_value("D07 rabbit minibody (scFv-rabbit Fc) (Fc fusion) scFv-Fc: SYELTQPPSVSVAPGETARMTCGGNNIGTKGVHWYQQKPGQAPVLVVYDDSDRPSGIPERFSGSNAGNTATLTISRVEAGDEADYYCQVWDSRSDQYVFGTRTKLTVLSGGSTITSYNVYYTKLSSSGAQVTLKESGPVLVKPTETLTLTCTVSGFSLSNARMGVSWIRQPPGKALEWLAHIFSNGEKSYSTSLKSRLTISKDTSKSQVVLTMTNMDPVDTATYYCARTLDYYDSSGYLVGGAFDIWGQGTMVTVSS")
"no binding"
>>> meas_value("G07 rabbit minibody (scFv-rabbit Fc) (Fc fusion) scFv-Fc: QSVLIQPPSASGTPGQRVTISCSGSNSNFGSNSVSWYQQRPGTAPKLLIEGNNQRPSGVPERFSGSKSGTSASLAISGLQSEDEAEYSCASWDDSLNAFVFGPGTKLTVLSGGSAITSYNVYYTKLSSSGTQVQLVQSGAEVKKPGESLKISCKGSGYSFTSYWIGWVRQMPGKGLEWMGIIYPGDSDIRYSPSFQGQVTISADKSFSSAYLQWSSLKASDTAMYYCARLGATGAFDIWGQGTTVTVSS")
"no binding"
